target-desc: T1, Bcl-2 (residues 1-207) (UniProt P10415 1-207)
T1 construct: Bcl-2, residues 1-207; Cloned in pET-28a(+) between NdeI and XhoI; buffer-exchanged to HBS-EP
T1 sequence (P10415 1-207): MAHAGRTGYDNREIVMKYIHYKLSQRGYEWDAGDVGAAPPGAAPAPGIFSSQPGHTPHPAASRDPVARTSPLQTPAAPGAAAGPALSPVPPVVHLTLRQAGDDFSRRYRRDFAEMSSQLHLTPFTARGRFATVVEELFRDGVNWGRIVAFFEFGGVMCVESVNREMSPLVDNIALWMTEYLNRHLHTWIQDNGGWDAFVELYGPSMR
procedure-details: SPR; Bid BH3 peptide amine-coupled to a CM5 chip (10 mM sodium acetate pH 4.0); proteins injected in HBS-EP (10 mM HEPES pH 7.5, 150 mM NaCl, 0.05 mM EDTA, 0.005% Tween 20) at 30 uL/min for 90 s; Biacore T200; affinity experiments, responses plotted against concentration
measurement-conditions: both partners purified
reported-property: Kd (nM)
Numbers only, in nM.

Q) In one line, give reported Kd of the entry EDIIRNIARHLAQVGDSMDRS (BH3 peptide of Bid; also called Bid BH3 peptide; representative BH3 peptide; source: synthetic peptide) [synthetic BH3 peptide derived from Bid (residues 79-100)] .
A) 44
